# Test system: SKBR-3
# assay-procedure: MTT assay, SKBR-3
# Assay type: cell-based, human
# condition-parameters: Selectivity Index = IC50 HDF / IC50 SKBR-3
// NB: equality with 1 counts as condition not met; only SKBR-3 SI strictly below is condition met

Request: Threshold test, SKBR-3 SI < 1: CC(=O)OC1CCC2(C)C(CCC3(C)C2CC=C2C4CC(C)(C)CCC4(C(=O)OCCOC(=O)C45CCC(C)(C)CC4C4=CCC6C7(C)CCC(OC(C)=O)C(C)(C)C7CCC6(C)C4(C)CC5)CCC23C)C1(C)C (stereo not shown)
Result: condition not met

Request: Threshold test, SKBR-3 SI < 1: `CC1(C)CC[C@]2(C(=O)O)CC[C@]3(C)C(=CC[C@@H]4[C@@]5(C)CC[C@H](O)C(C)(C)[C@@H]5CC[C@]43C)[C@@H]2C1`
Result: condition not met

Request: Threshold test, SKBR-3 SI < 1: CC(=O)OC1CCC2(C)C(CCC3(C)C2CC=C2C4CC(C)(C)CCC4(C(=O)OCCCCCOC(=O)C45CCC(C)(C)CC4C4=CCC6C7(C)CCC(OC(C)=O)C(C)(C)C7CCC6(C)C4(C)CC5)CCC23C)C1(C)C (stereo not shown)
Result: condition not met

Request: Threshold test, SKBR-3 SI < 1: CC(=O)OC1CCC2(C)C(CCC3(C)C2CC=C2C4CC(C)(C)CCC4(C(=O)OCC=CCOC(=O)C45CCC(C)(C)CC4C4=CCC6C7(C)CCC(OC(C)=O)C(C)(C)C7CCC6(C)C4(C)CC5)CCC23C)C1(C)C (stereo not shown) [Compound 3f]
Result: condition met

Request: Threshold test, SKBR-3 SI < 1: CC(=O)OC1CCC2(C)C(CCC3(C)C2CC=C2C4CC(C)(C)CCC4(C(=O)OCCCCCCOC(=O)C45CCC(C)(C)CC4C4=CCC6C7(C)CCC(OC(C)=O)C(C)(C)C7CCC6(C)C4(C)CC5)CCC23C)C1(C)C (stereo not shown)
Result: condition not met

Request: Threshold test, SKBR-3 SI < 1: CC(=O)OC1CCC2(C)C(CCC3(C)C2CC=C2C4CC(C)(C)CCC4(C(=O)OCCCCCCCOC(=O)C45CCC(C)(C)CC4C4=CCC6C7(C)CCC(OC(C)=O)C(C)(C)C7CCC6(C)C4(C)CC5)CCC23C)C1(C)C (stereo not shown)
Result: condition met

Request: Threshold test, SKBR-3 SI < 1: CC(=O)OC1CCC2(C)C(CCC3(C)C2CC=C2C4CC(C)(C)CCC4(C(=O)OCC=CCOC(=O)C45CCC(C)(C)CC4C4=CCC6C7(C)CCC(OC(C)=O)C(C)(C)C7CCC6(C)C4(C)CC5)CCC23C)C1(C)C (stereo not shown) [Compound 3e]
Result: condition not met

Request: Threshold test, SKBR-3 SI < 1: CC(=O)OC1CCC2(C)C(CCC3(C)C2CC=C2C4CC(C)(C)CCC4(C(=O)OCCCCCCCCOC(=O)C45CCC(C)(C)CC4C4=CCC6C7(C)CCC(OC(C)=O)C(C)(C)C7CCC6(C)C4(C)CC5)CCC23C)C1(C)C (stereo not shown)
Result: condition not met

Request: Threshold test, SKBR-3 SI < 1: CC(=O)OC1CCC2(C)C(CCC3(C)C2CC=C2C4CC(C)(C)CCC4(C(=O)OCCCCCCCCCCCOC(=O)C45CCC(C)(C)CC4C4=CCC6C7(C)CCC(OC(C)=O)C(C)(C)C7CCC6(C)C4(C)CC5)CCC23C)C1(C)C (stereo not shown)
Result: condition not met

Request: Threshold test, SKBR-3 SI < 1: CC(=O)OC1CCC2(C)C(CCC3(C)C2CC=C2C4CC(C)(C)CCC4(C(=O)OCCCCCCCCCCCCOC(=O)C45CCC(C)(C)CC4C4=CCC6C7(C)CCC(OC(C)=O)C(C)(C)C7CCC6(C)C4(C)CC5)CCC23C)C1(C)C (stereo not shown)
Result: condition not met
